# Tested on: ATP;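 note: ATP exposure 15 min at 22 °C before imaging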
# assay.details: switch fluorescence ratio, 500 uM ATP over buffer (Cy3 cluster intensity, sum of 5 cycles each) (fold (ratio)); higher = stronger signal-on switching upon ATP binding; sequences stand for … in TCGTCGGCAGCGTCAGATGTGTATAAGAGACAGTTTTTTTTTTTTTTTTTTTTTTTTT…TC
# condition.label: aptamer strand: ATP DNA aptamer (quencher-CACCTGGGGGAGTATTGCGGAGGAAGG + anchor), 100 nM annealed; ATP concentration: 500 uM
switch fluorescence ratio by entry:
measured.property: switch fluorescence ratio

[[record]]
biopolymer_sequence = "CGATTAAAAT"
observed_measurement = 0.986

[[record]]
biopolymer_sequence = "ATCGGATATA"
observed_measurement = 0.989

[[record]]
biopolymer_sequence = "TAATTGTAAG"
observed_measurement = 0.979

[[record]]
biopolymer_sequence = "TTTTTACCAT"
observed_measurement = 1.04

[[record]]
biopolymer_sequence = "GTTTGGCCGG"
observed_measurement = 0.998

[[record]]
biopolymer_sequence = "GTAGACGGGT"
observed_measurement = 1.03

[[record]]
biopolymer_sequence = "GGGGATTCAT"
observed_measurement = 0.986

[[record]]
biopolymer_sequence = "TTTTCCGGGT"
observed_measurement = 1.02

[[record]]
biopolymer_sequence = "TCCTTCCGGG"
observed_measurement = 2.16

[[record]]
biopolymer_sequence = "TTTTTTTCGG"
observed_measurement = 1

[[record]]
biopolymer_sequence = "CGATGGTCTG"
observed_measurement = 0.987

[[record]]
biopolymer_sequence = "GGGTTTAGAC"
observed_measurement = 0.982

[[record]]
biopolymer_sequence = "TTTAGGAAGT"
observed_measurement = 1.01

[[record]]
biopolymer_sequence = "TGGGGACAGT"
observed_measurement = 1

[[record]]
biopolymer_sequence = "GTGTGCGCTG"
observed_measurement = 1.01

[[record]]
biopolymer_sequence = "GGTGACCTTG"
observed_measurement = 0.989

[[record]]
biopolymer_sequence = "CAGGGGGTGC"
observed_measurement = 1.03

[[record]]
biopolymer_sequence = "GTGATAGTTA"
observed_measurement = 0.967

[[record]]
biopolymer_sequence = "TAAGGTTCAC"
observed_measurement = 1

[[record]]
biopolymer_sequence = "ATGATGCGGG"
observed_measurement = 1.01

[[record]]
biopolymer_sequence = "TTCCCTAATC"
observed_measurement = 1.02

[[record]]
biopolymer_sequence = "TATACCGCGA"
observed_measurement = 2.49

[[record]]
biopolymer_sequence = "TATTTAATTT"
observed_measurement = 0.997

[[record]]
biopolymer_sequence = "GCTAGGGGTG"
observed_measurement = 1.07

[[record]]
biopolymer_sequence = "GAAGAGAGGC"
observed_measurement = 0.96

[[record]]
biopolymer_sequence = "ATTGAGAAGT"
observed_measurement = 0.996

[[record]]
biopolymer_sequence = "ATTGGTATAT"
observed_measurement = 1.01

[[record]]
biopolymer_sequence = "ACCGCGGGCG"
observed_measurement = 1.07

[[record]]
biopolymer_sequence = "TAGGGAGGGC"
observed_measurement = 1.03

[[record]]
biopolymer_sequence = "GACTGGGTTG"
observed_measurement = 0.967

[[record]]
biopolymer_sequence = "CTTGGGTTGC"
observed_measurement = 0.996

[[record]]
biopolymer_sequence = "GGGCGTTATG"
observed_measurement = 1.02

[[record]]
biopolymer_sequence = "TAAGTTTCCT"
observed_measurement = 1.07

[[record]]
biopolymer_sequence = "CTTCTCTATC"
observed_measurement = 1.01

[[record]]
biopolymer_sequence = "TTGGGTGCGG"
observed_measurement = 1

[[record]]
biopolymer_sequence = "GTAGAAAAAG"
observed_measurement = 1.99

[[record]]
biopolymer_sequence = "CCGGGTTTTT"
observed_measurement = 1.12

[[record]]
biopolymer_sequence = "TATATGTCCA"
observed_measurement = 1

[[record]]
biopolymer_sequence = "AAGTACGAGG"
observed_measurement = 1.27

[[record]]
biopolymer_sequence = "CCATATAGGC"
observed_measurement = 1.03

[[record]]
biopolymer_sequence = "ACGGGTTCGC"
observed_measurement = 0.988

[[record]]
biopolymer_sequence = "TGGGTGATAA"
observed_measurement = 1.04

[[record]]
biopolymer_sequence = "ACTGAAGTTA"
observed_measurement = 0.98

[[record]]
biopolymer_sequence = "GGGAGAGTGG"
observed_measurement = 0.987

[[record]]
biopolymer_sequence = "TGGGAGCATA"
observed_measurement = 1.05

[[record]]
biopolymer_sequence = "TTAGGGTATT"
observed_measurement = 1.02

[[record]]
biopolymer_sequence = "TGTGTAAGAG"
observed_measurement = 0.987

[[record]]
biopolymer_sequence = "GCTATACAGC"
observed_measurement = 1.03

[[record]]
biopolymer_sequence = "TGGTATAGTC"
observed_measurement = 1

[[record]]
biopolymer_sequence = "GTTACCTTTT"
observed_measurement = 1.04

[[record]]
biopolymer_sequence = "TTGGTAGCTA"
observed_measurement = 0.989

[[record]]
biopolymer_sequence = "CCCATTTAGG"
observed_measurement = 1.04

[[record]]
biopolymer_sequence = "TAGGGGGTTG"
observed_measurement = 0.987

[[record]]
biopolymer_sequence = "CCGGGGGATC"
observed_measurement = 1.1

[[record]]
biopolymer_sequence = "GACTGATCGT"
observed_measurement = 1.01

[[record]]
biopolymer_sequence = "TATCTGGGGC"
observed_measurement = 1.04

[[record]]
biopolymer_sequence = "TATTAATTTT"
observed_measurement = 1.02

[[record]]
biopolymer_sequence = "TCGAGAGAAA"
observed_measurement = 1.01

[[record]]
biopolymer_sequence = "ACCGGGGGAG"
observed_measurement = 0.984

[[record]]
biopolymer_sequence = "TTCTAAAAAG"
observed_measurement = 0.995

[[record]]
biopolymer_sequence = "TGGGGTTCGT"
observed_measurement = 0.998

[[record]]
biopolymer_sequence = "GAGGTTTAGA"
observed_measurement = 0.988

[[record]]
biopolymer_sequence = "AGGTGCGGGA"
observed_measurement = 1.02

[[record]]
biopolymer_sequence = "TGAAAAGGGA"
observed_measurement = 1.01

[[record]]
biopolymer_sequence = "GGTTTGTGTT"
observed_measurement = 0.974

[[record]]
biopolymer_sequence = "GTGGTACATA"
observed_measurement = 0.981

[[record]]
biopolymer_sequence = "CCCATCCGGT"
observed_measurement = 1.12

[[record]]
biopolymer_sequence = "GGGTTCTTTA"
observed_measurement = 0.997

[[record]]
biopolymer_sequence = "TCGTTGAGTG"
observed_measurement = 1.02

[[record]]
biopolymer_sequence = "TACAAGGGCA"
observed_measurement = 1.01

[[record]]
biopolymer_sequence = "TTGGGTGAAG"
observed_measurement = 1.01

[[record]]
biopolymer_sequence = "CTTAGTTAGT"
observed_measurement = 0.993

[[record]]
biopolymer_sequence = "GTGTACGCTG"
observed_measurement = 0.988

[[record]]
biopolymer_sequence = "CCGCTCAGTT"
observed_measurement = 1.35

[[record]]
biopolymer_sequence = "CGTGTATTTG"
observed_measurement = 0.989

[[record]]
biopolymer_sequence = "TTGTTAGTAT"
observed_measurement = 0.996

[[record]]
biopolymer_sequence = "TTCGGGTGGT"
observed_measurement = 1.04

[[record]]
biopolymer_sequence = "CTGAATTGGT"
observed_measurement = 0.975

[[record]]
biopolymer_sequence = "GTTGTGGGTT"
observed_measurement = 0.976

[[record]]
biopolymer_sequence = "TATTTTGAGA"
observed_measurement = 0.997

[[record]]
biopolymer_sequence = "GTAATGTGGT"
observed_measurement = 0.967

[[record]]
biopolymer_sequence = "ATTTGTTGCA"
observed_measurement = 1.03

[[record]]
biopolymer_sequence = "GGTCGCAGTC"
observed_measurement = 0.965

[[record]]
biopolymer_sequence = "CGGAAGAATT"
observed_measurement = 0.994

[[record]]
biopolymer_sequence = "CGCTATGGGG"
observed_measurement = 1.02

[[record]]
biopolymer_sequence = "CATTATATCG"
observed_measurement = 1

